Reported REL TO WT, AFTER PEG MODIFICATION values for a set of molecules
Target: Thrombin (Homo sapiens, UniProt P00734)
Assay: thrombin inhibition activity assay (D.4), specific activity
Type: biochemical
Conditions: cysteine-PEGylated protein relative to wild type PN-1
// no unit string in output, number only

Per the records, this molecule ( D147C (conjugate, UniProt P07093 20-398, looked up, variant D147C, PEG) Glia-derived nexin: SHFNPLSLEELGSNTGIQVFNQIVKSRPHDNIVISPHGIASVLGMLQLGADGRTKKQLAMVMRYGVNGVGKILKKINKAIVSKKNKDIVTVANAVFVKNASEIEVPFVTRNKDVFQCEVRNVNFEDPASACDSINAWVKNETRDMICNLLSPDLIDGVLTRLVLVNAVYFKGLWKSRFQPENTKKRTFVAADGKSYQVPMLAQLSVFRCGSTSAPNDLWYNFIELPYHGESISMLIALPTESSTPLSAIIPHISTKTIDSWMSIMVPKRVQVILPKFTAVAQTDLKEPLKVLGITDMFDSSKANFAKITTGSENLHVSHILQKAKIEVSEDGTKASAATTAILIARSSPPWFIVDRPFLFFIRHNPTGAVLFMGQINKP ) has REL TO WT, AFTER PEG MODIFICATION equal to 0.25
